assay target: T1, nSR100 (Mus musculus, UniProt Q8BKA3)
T1 construct: host or cells: mouse N2A cells
T1 sequence (Q8BKA3 1-608): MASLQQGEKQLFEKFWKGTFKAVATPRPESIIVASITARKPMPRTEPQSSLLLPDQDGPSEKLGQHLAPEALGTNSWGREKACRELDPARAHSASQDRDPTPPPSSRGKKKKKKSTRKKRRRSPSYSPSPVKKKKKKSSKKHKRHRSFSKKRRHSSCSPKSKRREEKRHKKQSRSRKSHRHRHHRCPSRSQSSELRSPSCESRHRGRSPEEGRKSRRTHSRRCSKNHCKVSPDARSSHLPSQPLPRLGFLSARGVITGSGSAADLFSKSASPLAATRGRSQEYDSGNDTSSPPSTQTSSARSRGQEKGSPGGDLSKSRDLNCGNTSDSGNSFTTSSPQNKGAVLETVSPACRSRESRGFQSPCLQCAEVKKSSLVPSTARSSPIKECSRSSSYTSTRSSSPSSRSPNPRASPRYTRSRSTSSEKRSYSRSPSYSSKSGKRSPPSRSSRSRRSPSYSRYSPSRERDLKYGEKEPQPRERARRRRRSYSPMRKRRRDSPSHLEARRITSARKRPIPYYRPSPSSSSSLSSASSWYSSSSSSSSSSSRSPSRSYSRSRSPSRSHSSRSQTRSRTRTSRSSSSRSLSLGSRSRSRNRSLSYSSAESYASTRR
assay info: AP-MS nSR100 interaction partners from mouse N2A cells (Table 5)
Assay type: binding
recorded conditions: bait Srrm4, sum of spectra over 2 replicates
measured attribute: SpecSum
// return just the number, without any unit appended

Prompt line: Requested field: SpecSum. Item: Pgam5 (protein, UniProt Q8BX10 1-288, looked up) Serine/threonine-protein …: MAFRQALQLAACGLAGGSAAVLFSAVAVGKPRGGGDADTRATEPPAWTGARAGRGVWDTNWDRREPLSLINLKKRNVESGEDELTSRLDHYKAKATRHIFLIRHSQYHVDGSLEKDRTLTPLGREQAELTGLRLASLGLKFNKIVHSSMTRAVETTDIISKHLPGVSRVSTDLLREGAPIEPDPPVSHWKPEAVQYYEDGARIEAAFRNYIHRADARQEEDSYEIFICHANVIRYIVCRALQFPPEGWLRLSLNNGSITHLVIRPNGRVALRTLGDTGFMPPDKITRS
Response line: 32

// data source = patent US10772928B2
